Would you kindly list viability at 1 µM for each of these compounds?
Tested on: MCF7 breast cancer cell lines
experiment summary: Cell viability analysis, WST-8 assay, MCF7
test conditions: Homo sapiens, MCF7, 72 h, read-out: Cell viability (%) WST-8, MCF7 (1 µM), compound 1 µM, 72 hours
Answers are plain numbers, in %.

Examples with answers:
compound: CC(C)NC(=O)N1CC2CC1CN2c1nc(Nc2cn[nH]c2)c2ccccc2n1 (centres unmarked) [compound 28a]
quantity unit: %
viability at 1 µM: 99
--
compound: O=C(O)Cc1ccc(Nc2nc(Nc3cc(C4CC4)[nH]n3)c3ccccc3n2)cc1
quantity unit: %
viability at 1 µM: 102
--
compound: NC(=O)Cc1ccc(Nc2nc(Nc3cc(C4CC4)[nH]n3)c3ccccc3n2)cc1
quantity unit: %
viability at 1 µM: 64.8
--
compound: COc1cc(Nc2nc(Nc3ccc(CC#N)cc3)nc3ccccc23)n[nH]1
quantity unit: %
viability at 1 µM: 98.3
--
compound: C1=C(c2nc(Nc3cc(C4CC4)[nH]n3)c3ccccc3n2)CCNC1
quantity unit: %
viability at 1 µM: 64.3

Hi team, please reply with viability at 1 µM for each item in this list.
1. N#CCc1ccc(Nc2nc(Nc3cc[nH]n3)c3ccccc3n2)cc1
2. N#Cc1ccccc1S(=O)(=O)N1CC2CC1CN2c1nc(Nc2cc(C3CC3)[nH]n2)c2ccccc2n1 (centres unmarked) [compound 15v]

A.
108
80.5

Q. viability at 1 µM lookup needed for c1ccc2c(Nc3cc(C4CC4)[nH]n3)nc(Nc3cc(C4CC4)[nH]n3)nc2c1 , thanks.
A. 21.5
